- Test summary: PK test in mice
- Type: in vivo
- Condition description: mouse, PO 20 mg/kg, plasma
Measured property: Cmax (ng/mL)
Give bare numbers, in ng/mL.

# Cmax lookup, item "COc1ccc(F)cc1C(=O)NCc1ccc(-c2nn(-c3ccc(N4CCN(CC5CCN(c6ccc(N7CCC(=O)NC7=O)c(C)c6)CC5)CC4)nc3)c3ncnc(N)c23)cc1"
8950

* * *

- Test system: mino cells
- Test summary: Activity test in Mino cells (CCK8 proliferation inhibition)
- Format: cell-based
- Condition description: Homo sapiens, 72 h, 3 days, read-out: Cell inhibition IC50
Measured property: IC50

# IC50 lookup, item COc1ccc(F)cc1C(=O)NCc1ccc(-c2nn(-c3ccc(N4CCN(CC5CCN(c6ccc7c(c6)C(=O)N(C6CCC(=O)NC6=O)C7)CC5)CC4)cc3)c(N)c2C(N)=O)cc1 (centres unmarked)
< 25 nM

# IC50 lookup, item COc1ccc(F)cc1C(=O)NCc1ccc(-c2nn(-c3ccc(N4CCN(CC5CCN(c6ccc7c(c6)CN(C6CCC(=O)NC6=O)C7=O)CC5)C[C@@H]4C)nc3)c3ncnc(N)c23)cc1 (some centres unmarked)
< 25 nM

# IC50 lookup, item "COc1ccc(F)cc1C(=O)NCc1ccc(-n2c(=O)n(-c3ccc(N4CCN(CC5CCN(c6ccc(N7CCC(=O)NC7=O)c(C)c6)CC5)CC4)cc3)c3ccnc(N)c32)cc1"
< 25 nM

# IC50 lookup, item Nc1ncnc2c1c(-c1ccc(Oc3ccccc3)cc1)nn2-c1ccc(N2CCC(CN3CCN(c4ccc5c(c4)C(=O)N(C4CCC(=O)NC4=O)C5=O)CC3)CC2)nc1 (centres unmarked)
< 25 nM

Now consider the entry below.
# IC50 lookup, item "COc1ccc(F)cc1C(=O)NCc1ccc(-c2nc(-c3ccc(N4CCN(CC5CCN(c6ccc(N7CCC(=O)NC7=O)c(C)c6)CC5)CC4)c(OC)c3)n3ccnc(N)c23)cc1"
< 25 nM

* * *

- Test summary: PK test in mice
- Assay type: in vivo
- Condition description: mouse, PO 20 mg/kg, plasma
Measured property: MRT (h)
Answers are plain numbers, in h.

# MRT lookup, item "COc1ccc(F)cc1C(=O)NCc1ccc(-c2nn(-c3ccc(N4CCN(CC5CCN(c6ccc(N7CCC(=O)NC7=O)c(C)c6)CC5)CC4)nc3)c3ncnc(N)c23)cc1"
6.46

* * *

- Test summary: PK test in mice
- Format: in vivo
- Condition description: mouse, IV 5 mg/kg, plasma
Measured property: AUC(0-t) (ng·h/mL)
Answers are plain numbers, in ng·h/mL.

# AUC(0-t) lookup, item "COc1ccc(F)cc1C(=O)NCc1ccc(-c2nn(-c3ccc(N4CCN(CC5CCN(c6ccc(N7CCC(=O)NC7=O)c(C)c6)CC5)CC4)nc3)c3ncnc(N)c23)cc1"
42800

* * *

- Test summary: Brain tissue distribution test in mice
- Assay type: in vivo
- Condition description: mouse, IV 10 mg/kg, plasma
Measured property: AUC(0-inf) (ng·h/mL)
Answers are plain numbers, in ng·h/mL.

# AUC(0-inf) lookup, item COc1ccc(F)cc1C(=O)NCc1ccc(-c2nc(-c3ccc(N4CCN(CC5CCN(c6ccc(C7CCC(=O)NC7=O)cc6)CC5)CC4)cc3)n3ccnc(N)c23)cc1 (stereo not shown) [Compound I-18]
39800

* * *

- Test summary: Brain tissue distribution test in mice
- Format: in vivo
- Condition description: mouse, IV 10 mg/kg, plasma, read-out: T½ (converted)
Measured property: half-life (h)
Answers are plain numbers, in h.

# half-life lookup, item COc1ccc(F)cc1C(=O)NCc1ccc(-c2nc(-c3ccc(N4CCN(CC5CCN(c6ccc(C7CCC(=O)NC7=O)cc6)CC5)CC4)cc3)n3ccnc(N)c23)cc1 (stereo not shown) [Compound I-18]
4.44
